Values compiled from PubChem BioAssay AID1159580.

For each of the compounds below, state its normalized growth.
# measurement.description: chemical genetic growth profiling, strain panel (AID 1159580);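 also: tested at 20 µM; growth read once vehicle control cultures reached saturation at 30 °C; 1 = growth at the plate median or of vehicle wells; lower values mean less growth of the strain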
# conditions: S. cerevisiae deletion strains, growth OD, locus YPL241C, strain CIN2, hits give low values
Hit rate of the full screen: of about 5,500 compounds, about 2,000 (36%) were called active. Roughly 18% stayed inconclusive and do not appear here. The list shows a part of the results.

Consider the compound `CO/N=C(\C(=O)N[C@@H]1C(=O)N2C(C(=O)O)=C(CSc3nc(=O)c(O)nn3C)CS[C@H]12)c1csc(N)n1` . State its measured normalized growth.
0.982 (inactive)

For the compound COc1ccc2c(c1O)OCC1c3cc4c(cc3OC21)OCO4 (centres undefined) , report normalized growth.
0.99 (inactive)

Write down normalized growth measured for item `COc1ccc2c(c1)c(CC(=O)O)c(C)n2Cc1ccc(F)cc1`
1.01 (inactive)

Report normalized growth, nothing else, for this compound: `N#C/C(=C\c1cccn1-c1ccc(OC(F)(F)F)cc1)S(=O)(=O)c1ccccc1`
1.09 (inactive)

Give the reported value of normalized growth for this record: `O=C1NC(=O)C(=O)C(=O)N1`
1.01 (inactive)

Specify measured normalized growth for `CCCCN(CCCC)CCCOC(=O)c1ccc(N)cc1` .
1 (inactive)

// fetch normalized growth given entry `N#Cc1c(N)oc(-c2ccco2)c1-c1ccco1`
0.873 (inactive)

Using known records, supply normalized growth for C[N+]1(C)C2CC(OC(=O)[C@@H](CO)c3ccccc3)CC1C1OC12 (some centres undefined)
1.01 (inactive)

Supply normalized growth value. Item: `CN1C(C(=O)Nc2ccccn2)=C(O)c2ccccc2S1(=O)=O`
0.967 (inactive)

Kindly indicate its recorded normalized growth. Item: `O=[N+]([O-])c1ccc(N2CCCN(C(=S)Nc3ccc(Cl)cc3Cl)CC2)nc1`
0.866 (inactive)

State its normalized growth for this compound: `COc1cc([C@@H]2c3cc4c(c(O)c3C[C@H]3COC(=O)[C@@H]32)OCO4)cc(OC)c1OC`
0.987 (inactive)

Look up and state reported normalized growth for CCCN(CCC)C1CCc2cccc(O)c2C1 (centres undefined)
1 (inactive)

Give a short answer stating reported normalized growth for CCCCCCCCCCCCCC(=O)O[C@@H]1[C@@H](C)[C@@]2(O)[C@@H](C=C(CO)C[C@@]3(O)C(=O)C(C)=C[C@@H]23)C2C(C)(C)[C@@]21OC(C)=O (some centres undefined) .
0.997 (inactive)

Check the records and state normalized growth for `CCN(CC)CCOC(=O)c1ccc(N)cc1`
0.993 (inactive)

Please give measured normalized growth of the following entry: `CCCCOC(=O)c1ccccc1C(=O)OCc1ccccc1`
0.979 (inactive)

Identify the reported normalized growth for the following entry. `O=C(O)CN(CC(=O)O)Cc1cc2c(-c3ccccc3C(=O)O)c3cc(CN(CC(=O)O)CC(=O)O)c(=O)cc-3oc2cc1O`
0.987 (inactive)

Provide normalized growth value for the following compound: `O=C(CSCc1cccc2ccccc12)NNC(=O)c1ccc(F)cc1`
0.989 (inactive)

// Input: O=C(C1CCCCC1)N1CC(=O)N2CCc3ccccc3C2C1 (centres undefined) . Output its normalized growth only.
1 (inactive)

Please indicate normalized growth recorded for O=S1OCC2C(CO1)C1(Cl)C(Cl)=C(Cl)C2(Cl)C1(Cl)Cl (centres undefined)
0.985 (inactive)

Give reported normalized growth value for `CC(=O)c1ccc(-c2cccs2)s1`
0.869 (inactive)

Answer with reported normalized growth of `O=C1CCC(c2cccs2)=NN1`
1.05 (inactive)

Complete the entry with normalized growth for `NCCc1c[nH]c2ccc(C(N)=O)cc12`
1 (inactive)

Tell me normalized growth reported for O=C1[C@H](CCC(O)c2ccc(F)cc2)[C@@H](c2ccc(O)cc2)N1c1ccc(F)cc1 (some centres undefined)
0.996 (inactive)

Annotate the compound `CCCCOC(=O)c1ccccc1C(=O)OCCCC` with its measured normalized growth.
0.976 (inactive)

Consider the compound `CCCCC#Cc1nc(N)c2ncn([C@@H]3O[C@H](C(=O)NCC)[C@@H](O)[C@H]3O)c2n1` . State its measured normalized growth.
0.994 (inactive)

Given `CC(C)NC[C@H](O)COc1cccc2ccccc12` , respond with its normalized growth.
1.01 (inactive)

# return recorded normalized growth for entry `CCCCOC(=O)c1ccc(N)cc1`
0.98 (inactive)

Give recorded normalized growth. `CCN(CC)C(=O)c1cccc(C)c1`
0.991 (inactive)

Please list normalized growth recorded for the compound `CC1(C)O[C@H]2[C@H](O)C[C@](O)(C(N)=O)C[C@H]2O1`
1.02 (inactive)

Please look at this compound and report its normalized growth: `NC[C@@H]1CC[C@@H](N)[C@@H](O[C@H]2[C@H](O)[C@@H](O[C@H]3O[C@H](CO)[C@@H](O)[C@H](N)[C@H]3O)[C@H](N)C[C@@H]2N)O1`
0.991 (inactive)

Report normalized growth, nothing else, for this compound: CC1CNCCN1S(=O)(=O)c1cccc2cnccc12 (centres undefined)
0.996 (inactive)

Supply measured normalized growth of `CO/N=C(/C(=O)N[C@@H]1C(=O)N2C(C(=O)O)=C(COC(C)=O)CS[C@H]12)c1csc(N)n1` in your reply.
1 (inactive)

Respond only with normalized growth recorded for `CSC(=NC#N)N1CCN(c2ccc([N+](=O)[O-])cn2)CC1`
0.99 (inactive)

For `CCCCNc1ccc(C(=O)OCCN(C)C)cc1` , write its normalized growth.
1 (inactive)

Provide normalized growth value for the following compound: CO[C@@]1(NC(=O)CSCC#N)C(=O)N2C(C(=O)O)=C(CSc3nnnn3C)CSC21 (some centres undefined)
1.01 (inactive)

Answer with the recorded normalized growth of `Nc1ccc(C(=O)/C(=C\c2cccc([N+](=O)[O-])c2)C(=O)c2ccc(-c3ccccc3)cc2)cc1` only.
0.949 (inactive)

Please look at this compound and report its normalized growth: `N#CCC(=O)Nc1ccccn1`
1.04 (inactive)

Complete the entry with normalized growth for CC(C(O)c1ccc(O)cc1)N1CCC(Cc2ccccc2)CC1 (centres undefined)
0.944 (active)

Name the recorded normalized growth of the compound listed here: `O=C(CSCc1cccc2ccccc12)NNC(=S)Nc1ccccc1Cl`
0.648 (active)
